tested on: MS2 coat protein; assay: apparent KD of MS2 coat protein; designed switch direction (-1 OFF switch, 1 ON switch): -1; higher = weaker reporter binding; settings: input ligand: FMN 200 uM

monomer sequence	target desc	apparent KD of MS2 coat protein (nM)
AGUACUAUCACGAAAGUGAUAGUACAAAGAGCAAGUGGAACAUGAGGAUCACCCAUGUCCUCAUAUGCUCGUCUUAU [salish99-s2-v2-x003] (Eterna round: R96, puzzle: Sensor v2, turn-off variant 2)	MS2 coat protein	14.6
CUGAACCCGGUAGGAUAUAUUGUGGGCAAGCAUGGAACGACAUGAGGAUCACCCAUGUAAUUUAGGUAGAAGGGCCGAGAGAUU [Excl-NG2-LRO11] (Eterna round: R96, puzzle: Exclusion NG 2)	MS2 coat protein	70.7
AAGAAAGAGUUAGGAUAUACAUGAGGAUCACCCAUGUGGUGGUAAAUCCGCUGGGUCGGUUCGAUGUAGAAGGAACAACCGCCG [Inisinlaon] (Eterna round: R96, puzzle: Exclusion NG 2)	MS2 coat protein	281
GCAGCUAAUGCAGGAUAUCAGCACGUGUAGUGCUGAGAAGGGCACAUGAGGAUCACCCAUGUGAUCAAUUAAUAUUAAUGCUGC [ENG1/11-B3] (Eterna round: R96, puzzle: Exclusion NG 1)	MS2 coat protein	328
UGCAGACGAGGAUAUAGAUUUAGAUACAUGAGGAUCACCCAUGUAUACAUGUAUUUAGAUUUAGAAGGCGUCUGCU [E5/14-A3] (Eterna round: R97, puzzle: Exclusion 5)	MS2 coat protein	952
